target: AmQNS (quinolone synthase) (Aegle marmelos, UniProt M1HE54)
Sequence (M1HE54 entry or part of it): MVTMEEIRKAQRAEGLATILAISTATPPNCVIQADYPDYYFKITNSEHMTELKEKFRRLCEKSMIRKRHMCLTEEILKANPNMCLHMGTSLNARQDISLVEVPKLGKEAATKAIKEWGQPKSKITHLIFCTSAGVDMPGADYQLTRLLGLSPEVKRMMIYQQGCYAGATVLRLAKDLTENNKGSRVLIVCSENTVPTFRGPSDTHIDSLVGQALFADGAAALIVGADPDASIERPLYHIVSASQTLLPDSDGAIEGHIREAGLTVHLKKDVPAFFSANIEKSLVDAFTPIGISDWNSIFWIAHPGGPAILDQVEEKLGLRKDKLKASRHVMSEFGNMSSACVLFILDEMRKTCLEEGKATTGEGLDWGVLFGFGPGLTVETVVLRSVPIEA
protocol text: Surface plasmon resonance (SPR) AmQNS-substrate interaction studies
Assay type: binding
assay conditions: SPR, AmQNS immobilized on GLM chip, 30 °C, Langmuir 1:1 model; read-out: KD (KD= kd /ka)
Source text: ProteOn XPR array system[21] and ‘GLM’ sensor chip was used for the SPR interaction studies. […] Here, amine coupling works, where the amine groups present in the AmQNS covalently bind to the chemically activated carboxyl groups of the dextran molecules. Channel L3 and L4 were used for immobilization of protein while L2 was used as reference. The extent of non-specific interactions was eliminated or reduced by optimizing the buffer conditions. […]

# molecule, unit annotation, Kd
rows = [
    ("CCCCCCCCCCCCCCCCCC(=O)SCCNC(=O)CCNC(=O)[C@H](O)C(C)(C)COP(=O)(O)OP(=O)(O)OC[C@H]1O[C@@H](n2cnc3c(N)ncnc32)[C@H](O)[C@@H]1OP(=O)(O)O [Stearoyl-CoA]", "nM", 164),
    ("CC(C)(COP(=O)(O)OP(=O)(O)OC[C@H]1O[C@@H](n2cnc3c(N)ncnc32)[C@H](O)[C@@H]1OP(=O)(O)O)[C@@H](O)C(=O)NCCC(=O)NCCSC(=O)CC(=O)O [Malonyl-CoA]", "nM", 172),
    ("COc1cc(/C=C/C(=O)SCCNC(=O)CCNC(=O)[C@H](O)C(C)(C)COP(=O)(O)OP(=O)(O)OC[C@H]2O[C@@H](n3cnc4c(N)ncnc43)[C@H](O)[C@@H]2OP(=O)(O)O)cc(OC)c1O [Sinapoyl-CoA]", "nM", 116),
]

---

target: AmQNS (quinolone synthase) (Aegle marmelos, UniProt M1HE54)
protocol text: Surface plasmon resonance (SPR) AmQNS-substrate interaction studies
Format: binding
assay conditions: SPR dissociation rate, AmQNS immobilized on GLM chip, 30 °C, Langmuir 1:1 model
Each entry below carries its reported dissociation rate constant (koff).
observation type: dissociation rate constant (koff) (s⁻¹)

# molecule, readout number
data = [
    ("CCCCCCCCCCCCCCCC(=O)SCCNC(=O)CCNC(=O)[C@H](O)C(C)(C)COP(=O)(O)OP(=O)(O)OC[C@H]1O[C@@H](n2cnc3c(N)ncnc32)[C@H](O)[C@@H]1OP(=O)(O)O [Palmitoyl-CoA]", 0.00417),
    ("CC(C)(COP(=O)(O)OP(=O)(O)OC[C@H]1O[C@@H](n2cnc3c(N)ncnc32)[C@H](O)[C@@H]1OP(=O)(O)O)[C@@H](O)C(=O)NCCC(=O)NCCSC(=O)/C=C/c1ccc(O)cc1 [p-coumaroyl CoA]", 0.0595),
    ("CCCCCC(=O)SCCNC(=O)CCNC(=O)[C@H](O)C(C)(C)COP(=O)(O)OP(=O)(O)OC[C@H]1O[C@@H](n2cnc3c(N)ncnc32)[C@H](O)[C@@H]1OP(=O)(O)O [Hexanoyl-CoA]", 0.00703),
    ("CC(C)(COP(=O)(O)OP(=O)(O)OC[C@H]1O[C@@H](n2cnc3c(N)ncnc32)[C@H](O)[C@@H]1OP(=O)(O)O)[C@@H](O)C(=O)NCCC(=O)NCCSC(=O)c1ccccc1 [Benzoyl-CoA]", 0.0267),
    ("CNc1ccccc1C(=O)SCCNC(=O)CCNC(=O)[C@H](O)C(C)(C)COP(=O)(O)OP(=O)(O)OC[C@H]1O[C@@H](n2cnc3c(N)ncnc32)[C@H](O)[C@@H]1OP(=O)(O)O [N-methylanthraniloyl-CoA]", 0.204),
]
